meta.source: patent US7611713

What binding affinity ratio (IC50 of standard peptide / IC50 of test peptide) was measured for each of the following?
tested on: HLA-A*0301 (human)
One number for each entry.

Here is how some binders turned out for binding affinity ratio (IC50 of standard peptide / IC50 of test peptide).
>  <binder>
LLVLQAGFF (modifications not checked) [HBV ENV 175 peptide …]

>  <value reported>
0.0006

$$$$
>  <binder>
LSFLPSDFF (modifications not checked) [HBV NUC 45 peptide …]

>  <value reported>
0.0006

$$$$
>  <binder>
HLNPNKTKR (modifications not checked) [HBV POL 569 peptide …]

>  <value reported>
0.0025

$$$$

We now examine a further binder.
(Q) # query: binding affinity ratio (IC50 of standard peptide / IC50 of test peptide) of entry LLDTASALYR (modifications not checked) [HBV NUC 30 peptide …]
(A) 0.005
